src = patent US12291518B2

target: THR beta-LBD (Homo sapiens); construct: THR beta-LBD (the final concentration is 0.5 nM) was added to the 384-well assay plate; purchased Invitrogen PV4686; assay: THR-β Coactivator Peptide Recruitment Assay (LanthaScreen TR-FRET); type: biochemical; details: TR-FRET coactivator recruitment, THR beta-LBD 0.5 nM; read-out: THRβ EC50
Sequence (P10828 217-461 limits assumed): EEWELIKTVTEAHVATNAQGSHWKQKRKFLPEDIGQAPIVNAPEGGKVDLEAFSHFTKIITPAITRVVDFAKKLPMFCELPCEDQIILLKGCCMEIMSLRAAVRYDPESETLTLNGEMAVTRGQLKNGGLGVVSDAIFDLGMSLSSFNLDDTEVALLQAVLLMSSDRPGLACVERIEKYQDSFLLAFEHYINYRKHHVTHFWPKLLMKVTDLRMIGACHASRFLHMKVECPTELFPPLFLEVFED
pEC50: −log10 of the molar value.
QUANTITY NAME: pEC50

QUERY: Write down the reported pEC50 of O=c1[nH]c(=O)n(-c2cc(Cl)c(Oc3ccc(O)c(S(=O)(=O)N4CCC(O)CC4)c3)c(Cl)c2)nc1C(F)F , test system: THR beta-LBD (Homo sapiens).
RESULT: > 8.70

QUERY: Write down the reported pEC50 of CNS(=O)(=O)c1cc(Oc2c(Cl)cc(-n3nc(C(F)F)c(=O)[nH]c3=O)cc2Cl)ncc1O , test system: THR beta-LBD (Homo sapiens).
RESULT: 7.70 to 8.70

QUERY: Write down the reported pEC50 of O=c1[nH]c(=O)n(-c2cc(Cl)c(Oc3cc(S(=O)(=O)N[C@H]4CCOC4)c(O)cn3)c(Cl)c2)nc1C(F)F , test system: THR beta-LBD (Homo sapiens).
RESULT: > 8.70

QUERY: Write down the reported pEC50 of CNC(=O)C1(NS(=O)(=O)c2cc(Oc3c(Cl)cc(-n4nc(C(F)F)c(=O)[nH]c4=O)cc3Cl)ccc2O)CC1 , test system: THR beta-LBD (Homo sapiens).
RESULT: 7.70 to 8.70
